// data source = PubChem BioAssay

measurement-protocol: basal RPMI8226 viability, no added stimulus, profiling panel, cell-based, calcein-AM fluorescence, 48 h, PK04 Diversity Set (AID 1166);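 note: cells grown under basal conditions without added stimulus; test concentration not given here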
condition-details: RPMI8226 myeloma viability, higher = more signal
parameter: z-score
Numbers only.

Consider the worked cases shown below.
O=C(OCc1ccccc1)C1=CCC2c3[nH]c4ccccc4c3C(=O)C1N2S(=O)(=O)c1ccccc1[N+](=O)[O-] (stereo not given) | -0.286
O=C(NCCN1CCOCC1)C1N=C(c2ccc(OCCCO)cc2)N(c2ccccc2)O1 (stereo not given) | -0.425
COCCOC(=O)N1C(=O)[C@@]2(c3ccccc31)[C@H](c1ccccc1OCCO)N1[C@H](c3ccccc3)[C@H](c3ccccc3)OC(=O)[C@H]1[C@@H]2C(=O)N1CCN(c2ncccn2)CC1 | -0.949

Consider the following items and state reported z-score for each.
1. CO[C@H]1O[C@H](CO)[C@@H](OC(=O)Nc2cccc(F)c2)[C@H](OC(=O)Nc2ccccc2)[C@@H]1OC(=O)Nc1ccccc1
2. C=C(COC)C(=O)CC[C@@H](OC(C)=O)c1ccc(CO)o1
3. CC(C)[Si]1(C(C)C)O[C@@H](c2ccccc2)c2cc(-c3ccc(-c4ccc(Cl)c(Cl)c4)o3)nc(-c3ccccc3)c21
4. C=C(CC1([C@@H](NP(=O)(c2ccccc2)c2ccccc2)[C@H]2C[C@@H]2CCCC)CC1)c1ccccc1
5. CC1(C)[C@@H]2CC(C(O)C3C=CC4C(=O)N(c5ccccc5)C(=O)C4N3Nc3ccc([N+](=O)[O-])cc3)=C[C@H]1C2 (stereo not given in full)

-4.24
-0.355
-3.09
-3.25
0.287

List z-score for every entry below, keeping the order given.
1. C=C(/C(=C/C[C@H](OC(C)=O)c1ccccc1OCCO)c1cnc2ccccc2c1)C(C)C
2. CN(C)CCCCCCNC(=O)[C@@H]1C[C@@H]2C(=O)N[C@@H](Cc3ccccc3)C(=O)N2[C@@H]1c1ccc(O)cc1
3. CCCc1cc2c(n1Cc1cc(F)cc(F)c1)C(C)C1CN(C(=O)c3ccccc3)C(C)(C(=O)OC)C21 (stereo not given)
4. CCCCN1CC=CC23O[C@@H]4C=CCCOC(=O)C4[C@H]2C(=O)N(CCCCCCO)[C@@H]3C1=O (stereo not given in full)
5. COc1ccc(C#Cc2ccc3c(c2)[C@]2(C(=O)N3)[C@H](C(=O)NC[C@H](O)c3ccccc3)[C@H]3C(=O)O[C@H](c4ccccc4)[C@H](c4ccccc4)N3[C@@H]2c2ccc(O)cc2)cc1
6. C=CCOC(=O)[C@H]1[C@@H]2C(=O)O[C@@H](c3ccccc3)[C@@H](c3ccccc3)N2[C@@H](c2ccc(OCCOC(=O)[C@H]3C[C@H]4C(=O)N[C@@H](CCCCNC(C)=O)C(=O)N4[C@H]3c3cccc(OCCO)c3)cc2)[C@]12C(=O)Nc1ccccc12
7. CC(C)N1C(=O)c2ccccc2[C@](C)(C(=O)NCCN2CCOCC2)[C@@H]1c1ccc(CO)cc1

-2.23
-0.571
-4.39
-0.363
-4.13
0.728
0.0409
